Assignment: determine reported activity change % (negative = inhibition) for the given molecules.
- TARGET_OF_ASSAY: Thyroid hormone receptor beta (Homo sapiens)
- ASSAY_EXPLANATION: qHTS assay for small molecule antagonists of thyroid hormone receptor beta signaling (AID 588547);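 further: cells stimulated with 0.4 nM T3 agonist during compound exposure; on the % scale 0 is the no-effect control and ±100 the full control effect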
- EXPERIMENTAL_CONTEXT: TR-UAS-bla HEK293, beta-lactamase ratio, antagonist mode, 18 h
Results filed as inconclusive are left out.
Report the value in % with no unit label.

Qu. Identify measured activity change % (negative = inhibition) associated with CCC(C)O (centres undefined)
Ans. -7.82

Qu. State its activity change % (negative = inhibition): NC=O
Ans. 21.1

Qu. Answer with reported activity change % (negative = inhibition) of Cc1ccc(Br)cc1
Ans. -9.28

Qu. Give a short answer stating reported activity change % (negative = inhibition) for C=C(C)C(=O)OCCCCCCCCCC .
Ans. 12.3

Qu. Specify reported activity change % (negative = inhibition) for the molecule shown: O=C(O)CNC(=O)c1ccc(CO)o1
Ans. -8.36

Qu. Name the recorded activity change % (negative = inhibition) of the molecule listed here: COc1ccc(N)c(C)c1
Ans. -12.3

Qu. Please list activity change % (negative = inhibition) recorded for the molecule Cc1ccc(Cl)cc1N
Ans. -4.43

Qu. Provide one value: measured activity change % (negative = inhibition) of CCOC(=O)C(C)C(C)=O (centres undefined)
Ans. 2.26

Qu. Report activity change % (negative = inhibition) for CCCCCCCCC/C=C/CC1CC(=O)OC1=O (centres undefined)
Ans. 2.72

Qu. Consider the molecule Cc1ccc(C(C)(C)C)cc1 . State its measured activity change % (negative = inhibition).
Ans. 14

Qu. Tell me its activity change % (negative = inhibition) given N#Cc1ccccc1 as the entry.
Ans. 1.08

Qu. Hello, please tell me recorded activity change % (negative = inhibition) for this one: CC(C)c1ccccc1
Ans. 6.43

Qu. Determine its reported activity change % (negative = inhibition): Cc1c(N)cccc1[N+](=O)[O-]
Ans. -5.59

Qu. // Input: CCCCCO . Output its activity change % (negative = inhibition) only.
Ans. 2.41

====

- ASSAY_EXPLANATION: Cell Viability - LYMP2-006 (AID 978);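 further: cells exposed to compound for 24 hours; nearly all actives have a fitted effect of over 60% in size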
- EXPERIMENTAL_CONTEXT: LYMP2-006 lymphoblastoid cell viability, qHTS; series mostly up to 92.2 µM
Results filed as inconclusive are left out. The source made the active and inactive calls. Calls come from the whole dose curve; as a rule, active = well fitted cell-killing curve with a large enough effect; inconclusive = small, poorly fitted or top-dose-only effect; inactive = flat fitted curve, though single readings scatter.
Reply using exactly one outcome from active, inactive

Qu. What classification did Nc1nc(CC(=O)O)cs1 end up with in this test?
Ans. inactive

Qu. Test call for this compound, please: CNc1ccc([N+](=O)[O-])cc1
Ans. inactive

Qu. Query: recorded result category for C=C(C)C(N)=O in this test
Ans. inactive

Qu. I'd appreciate the recorded outcome for O=C(O)c1c(Cl)cccc1Cl from this test.
Ans. inactive

Qu. Per the assay record, what outcome was assigned to Cc1cc(C)cc(N)c1 ?
Ans. inactive

Qu. Write down the call the test reported for this compound. Item: CCNc1cc(O)ccc1C
Ans. inactive

Qu. Tell me the assay call for CSCCC=O please.
Ans. inactive

Qu. Hi, do you know how O=c1[nH][nH]c(=O)c2cc([N+](=O)[O-])ccc12 came out in this test?
Ans. inactive

Qu. # outcome recorded in this test, key = Nc1nc2ccccc2[nH]1
Ans. inactive

Qu. Record request — test call for Cc1ccccc1C(N)=O
Ans. inactive

Qu. Which outcome was assigned to C=C(C)C(=O)OCC(C)C in this test?
Ans. inactive

Qu. Assay outcome for Nc1cccc2c(=O)[nH][nH]c(=O)c12 : what was it?
Ans. inactive

Qu. Each compound tested received a call. Report the one for BrC/C=C/CBr .
Ans. inactive

Qu. Outcome logged for CCN(Cc1ccccc1)c1ccccc1 in this assay:
Ans. inactive

Qu. Outcome? CC1(N)CCC(C(C)(C)N)CC1 (centres undefined)
Ans. inactive

Qu. In this assay, the call recorded for O=Cc1ccc(Cl)cc1 was what?
Ans. inactive

Qu. Assay outcome for CO[Si](CCCNCCC[Si](OC)(OC)OC)(OC)OC : what was it?
Ans. inactive

Qu. For ICCc1ccccc1 , which call appears in the assay record?
Ans. inactive

Qu. Recorded test outcome, item O=C(O)c1ccc(Cl)cc1Cl
Ans. inactive

Qu. Hi, do you know how C1COC1 came out in this test?
Ans. inactive

Qu. Hey, what did the test say about O=C(O)c1cccc([N+](=O)[O-])c1 ?
Ans. inactive

Qu. For this compound, state the assay outcome: O=C(O)/C=C/C(=O)O
Ans. inactive

Qu. Just curious, what result did CC1CCC2CC1C2(C)C (centres undefined) get here?
Ans. inactive

Qu. Query: recorded result category for Cc1cccc2sc(N)nc12 in this test
Ans. inactive

Qu. Please indicate how the test categorized FC(F)(F)c1cccc(Cl)c1 .
Ans. inactive

Qu. Dear all, I need the recorded test outcome for CC(N)CN (centres undefined) , thank you.
Ans. inactive

Qu. Identify the outcome logged in this assay for the compound shown: C=CCOC(=O)CCCCCCCC
Ans. inactive

Qu. Query: recorded result category for Cc1nc2ccc(Cl)cc2[nH]1 in this test
Ans. inactive

Qu. Short answer needed: outcome of this test for Cc1ccc2ccccc2c1[N+](=O)[O-] ?
Ans. inactive

Qu. Entry O=C(Cl)c1ccccc1[N+](=O)[O-] : call = ?
Ans. inactive

Qu. Test call, this compound: Cc1cc(C)cc([N+](=O)[O-])c1
Ans. inactive

Qu. Outcome? NC(N)=S
Ans. inactive

Qu. How was CN(C)CCCNCCCN classified in this test?
Ans. inactive

Qu. Recorded test call requested for CCCC(Cl)CCCC(Cl)CCC(Cl)CCC(Cl)CCC(Cl)CCCC(Cl)CCC (centres undefined)
Ans. inactive

Qu. For this compound, state the assay outcome: CC(=O)c1ccccc1[N+](=O)[O-]
Ans. inactive

Qu. Could you kindly confirm the outcome this assay logged for CC(O)CC(C)O (centres undefined) ?
Ans. inactive

Qu. Recorded test outcome, item NC(=O)NC(N)=O
Ans. inactive

Qu. Hi, sorry to bother you, what did the test record for COc1ccccc1[N+](=O)[O-] ?
Ans. inactive

Qu. Can you look up the reported call for C=Cc1ccccn1 for me?
Ans. inactive

Qu. Assay result, entry CC1=C(/C=C/C(C)=C/C=C/C(C)=C\C=O)C(C)(C)CCC1 — outcome?
Ans. active

Qu. Hey, what did the test say about CCOCCO ?
Ans. inactive

Qu. Which outcome was assigned to COC(=O)CCC(=O)OC in this test?
Ans. inactive

Qu. Tell me the assay call for c1ccc(Oc2ccccc2)cc1 please.
Ans. inactive

Qu. Dear colleague, could you share the recorded outcome for Nc1cc([N+](=O)[O-])ccc1C(=O)O when you have a moment?
Ans. inactive

Qu. Recorded call for CCN(CC)c1cccc(O)c1 ?
Ans. inactive

Qu. Hi, do you know how Oc1c(Cl)ccc(Cl)c1Cl came out in this test?
Ans. inactive

Qu. Please indicate how the test categorized O=C(O)c1ccc(CO)o1 .
Ans. inactive

Qu. Give the logged outcome of this assay for the following compound: Oc1cccc(Nc2ccccc2)c1
Ans. inactive

Qu. Dear all, I need the recorded test outcome for O=C(O)c1ccccc1Cl , thank you.
Ans. inactive

Qu. For CCOC(=O)C(C)C(C)=O (centres undefined) , what call appears in the results of this test?
Ans. inactive

Qu. What did the test return for CC(=O)c1cc(C)oc1C ?
Ans. inactive

Qu. Call for entry CC(=O)c1ccc([N+](=O)[O-])cc1 :
Ans. inactive

Qu. What did this assay record as the result for C=CCCC ?
Ans. inactive

Qu. Please state the recorded outcome for this compound: O=C(Cl)c1cccc([N+](=O)[O-])c1
Ans. inactive

Qu. Hi, sorry to bother you, what did the test record for C1CCC2OC2C1 (centres undefined) ?
Ans. inactive

Qu. Write down the call the test reported for this compound. Item: C/C(C=O)=C/c1ccccc1
Ans. inactive

Qu. Please share the test call associated with C/C=C(/C)C#N .
Ans. inactive

Qu. What call does the record list for CC(C)(C)OC=O ?
Ans. inactive

Qu. Name the outcome recorded for Nc1cc(S(=O)(=O)O)ccc1O in the assay.
Ans. inactive

Qu. In this assay, the call recorded for Cc1cccc(Br)c1 was what?
Ans. inactive

Qu. What did the test return for CCC(C)(C)C ?
Ans. inactive

Qu. Look up the recorded call for CCCCCCCCCCCCOCC1CO1 (centres undefined) in this test.
Ans. inactive

Qu. Lab log entry: CCCCC(CC)CNCC(CC)CCCC (centres undefined) — outcome as called in the assay?
Ans. inactive

Qu. Look up the recorded call for Cc1cc(C2(c3cc(C)c(O)cc3C)OS(=O)(=O)c3ccccc32)c(C)cc1O in this test.
Ans. inactive

Qu. Record request — test call for CC(C)CO
Ans. inactive

Qu. What outcome does the record of this test show for C=Cc1ccccc1C=C ?
Ans. inactive

Qu. What did this assay record as the result for CCC=O ?
Ans. inactive

Qu. Please state the recorded outcome for this compound: C=CCCCCCCC=C
Ans. inactive

Qu. Assay result, entry O=C(Cl)c1c(Cl)cccc1Cl — outcome?
Ans. inactive

Each recorded value in this set is attributed to PubChem BioAssay (NCATS).
